Dear all, I have gathered published Ki values for Receptor-interacting serine/threonine-protein kinase 1 (Homo sapiens); the list follows.
Numbers only, in nM.

Examples from the recorded data:
> print(dat)
                                   molecule  measured
1  O=S(=O)(c1nc2n(n1)[C@H](c1cccc(Cl)c1)C[C@@H]2F)C(F)F (single isomer, unassigned)        39
2  Cn1ccn(-c2nc3n(n2)[C@H](c2ccccc2)C[C@@H]3F)c1=O (single isomer, unassigned)       820
3  N#Cc1ccc2c(c1)nnn2-c1nc2n(n1)[C@H](c1ccccc1)C[C@@H]2F (racemic)        19
4  O=C(c1nc2n(n1)[C@@H](c1ccccc1)C[C@H]2F)N1CCC1 (racemic)        31
5  CC(C)[S@@+]([O-])c1nc2n(n1)[C@H](c1ccccc1)C[C@@H]2F (single isomer, unassigned)         8

Each molecule below has a reported value. Please supply its Ki.
1. O=S(=O)(c1nc2n(n1)[C@H](c1ccc(F)c(F)c1)C[C@@H]2F)[C@@H]1C[C@H]1F (single isomer, unassigned)
2. O=C(c1nc2n(n1)C(c1ccccc1)CC2)N1CC(F)C1 (racemic)
3. FC(F)c1nc2n(n1)[C@@H](c1ccccc1)C[C@H]2F (single isomer, unassigned)
4. N#CC[S@+]([O-])c1nc2n(n1)[C@H](c1cccc(F)c1)C[C@@H]2F (single isomer, unassigned)
5. OC(c1nc2n(n1)C(c1ccccc1)CC2F)C(F)(F)F (centres unmarked)
6. CCCc1nc2n(n1)[C@H](c1ccccc1)C[C@@H]2F (single isomer, unassigned)
7. [O-][S@@+](c1nc2n(n1)[C@H](c1ccccc1)C[C@@H]2F)C(F)F

1: 9; 2: 343; 3: 180; 4: 190; 5: 470; 6: 28; 7: 100
